Numbers sourced from ChEMBL document CHEMBL3988442.

- SYSTEM: Ubiquitin-activating enzyme e1, putative (Leishmania donovani (strain BPK282A1)) (UniProt E9BSI1)
- Sequence (whole entry): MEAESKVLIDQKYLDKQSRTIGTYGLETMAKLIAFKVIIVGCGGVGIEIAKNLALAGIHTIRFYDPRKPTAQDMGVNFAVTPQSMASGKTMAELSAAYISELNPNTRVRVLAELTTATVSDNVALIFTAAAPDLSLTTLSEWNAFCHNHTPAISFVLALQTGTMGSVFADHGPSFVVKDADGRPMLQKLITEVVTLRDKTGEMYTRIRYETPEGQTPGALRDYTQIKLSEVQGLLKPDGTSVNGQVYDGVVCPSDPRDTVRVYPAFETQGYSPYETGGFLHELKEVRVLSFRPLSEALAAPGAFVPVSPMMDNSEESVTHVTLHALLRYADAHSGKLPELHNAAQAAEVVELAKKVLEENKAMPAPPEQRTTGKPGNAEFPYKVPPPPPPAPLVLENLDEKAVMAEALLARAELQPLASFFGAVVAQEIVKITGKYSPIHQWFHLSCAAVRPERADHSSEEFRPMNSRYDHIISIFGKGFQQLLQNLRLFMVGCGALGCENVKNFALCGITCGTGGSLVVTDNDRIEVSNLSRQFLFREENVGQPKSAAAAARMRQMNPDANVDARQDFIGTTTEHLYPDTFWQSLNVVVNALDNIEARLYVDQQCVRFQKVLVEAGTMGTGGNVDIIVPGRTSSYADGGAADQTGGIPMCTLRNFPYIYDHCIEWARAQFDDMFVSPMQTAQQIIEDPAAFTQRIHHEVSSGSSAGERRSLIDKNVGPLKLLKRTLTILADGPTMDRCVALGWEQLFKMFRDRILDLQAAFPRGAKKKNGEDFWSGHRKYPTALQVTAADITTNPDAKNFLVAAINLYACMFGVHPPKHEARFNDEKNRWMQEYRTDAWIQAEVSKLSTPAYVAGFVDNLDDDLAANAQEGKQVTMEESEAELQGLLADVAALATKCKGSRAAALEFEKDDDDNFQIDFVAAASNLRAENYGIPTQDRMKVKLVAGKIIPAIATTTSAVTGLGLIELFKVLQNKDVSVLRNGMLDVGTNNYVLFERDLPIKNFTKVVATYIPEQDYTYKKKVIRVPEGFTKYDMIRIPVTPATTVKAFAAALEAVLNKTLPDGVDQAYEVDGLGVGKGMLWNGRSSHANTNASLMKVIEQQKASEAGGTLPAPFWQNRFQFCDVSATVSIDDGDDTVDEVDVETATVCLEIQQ
- PROCEDURE DETAILS: Leishmania donovani Ubiquitin Activating Enzyme (LdE1)
- Type: functional
- Set-up: scale not given: direction of the effect not stated beside the values
- PROTOCOL CONDITIONS: 30 µM
Potency and affinity values are given separately.
If the reported Percent Effect equals or exceeds 10%, assign Y. If not, assign N.

COMPOUND	ASSIGNED LABEL
COCCC(=O)N1CCC2(COCc3c(C)nc(NCC4CC4)nc32)C1 (stereo not drawn)	Y
c1coc(-c2noc(CN3CC(n4cccn4)C3)n2)c1	N
Cc1cc2n(n1)CC(CNCc1ccnc(-n3ccnc3C)c1)CN2 (stereo not drawn)	Y
CC(NC(N)=O)C(=O)N(C)CCCc1cc(-c2ccccc2)no1 (stereo not drawn)	N
CC(NC(=O)N1CCC(n2cncn2)CC1)c1ccc(F)cc1F (stereo not drawn)	Y
Fc1ccc(CN2CCO[C@H]3[C@H](OCCN4CCCC4)CC[C@@H]32)cc1	Y
CCS(=O)(=O)CCNC(=O)c1ccc(-c2ccc(C)cc2)cc1F	N
COCCN(Cc1nc2c(cnn2C)c(=O)[nH]1)Cc1ccco1	Y
CC(OCC1CC1)C(=O)N1CCCN(Cc2nccn2C)CC1 (stereo not drawn)	Y
CN(C)C(=O)Cc1nc(CN2CCn3c(nnc3C3CC3)C2)cs1	Y
COCCN1CCC(N(Cc2noc(C3CC3)n2)C(C)=O)C1 (stereo not drawn)	Y
Cc1nc(NCc2ccc(C)o2)cc(C(=O)N2CCOCC2)n1	Y
COCC(=O)N1CCCC2(CCN(c3ccsc3)C2=O)C1 (stereo not drawn)	N
c1cnc(N2CCC3(COCc4cnc(-c5cccnc5)nc43)C2)nc1 (stereo not drawn)	N
COc1ccccc1Oc1ncccc1CNC(=O)C(C)N1CCCC1 (stereo not drawn)	Y
Cc1noc(C)c1CN1CC[C@H]2OCC[C@@H](C(=O)N3CCCO3)[C@@H]2C1	Y
Cc1cc(CN(C)C2CCCN(c3cccnn3)C2)on1 (stereo not drawn)	N
Cc1ccc([C@@H]2CN(S(=O)(=O)C(C)C)C[C@H]2N(C)C)cc1	Y
CC(C)C(Sc1nnc(C2CC2)n1C1CC1)C(=O)NCc1cccnc1 (stereo not drawn)	N
O=C(NC1CCC1)[C@@H]1C[C@@H]2CCN(Cc3cccs3)C[C@@H]2O1	N
c1ccc(-c2nccc(CNCC3CCCN3c3cccnn3)n2)cc1 (stereo not drawn)	N
COc1ccc(CN(C)CC2(O)CCN(C(=O)c3cccn3C)C2)cc1 (stereo not drawn)	N
Cc1nc(CN2CCC(N(C)Cc3noc(C(C)C)n3)C2)cs1 (stereo not drawn)	N
CC(OCC(F)(F)F)C(=O)N1CCCCC1 (stereo not drawn)	N
O=C(NS(=O)(=O)c1cc(Cl)sc1Cl)c1cccc2c1OCCO2	N
COCc1cccc(CNC(=O)CN2CCCC2c2noc(C)n2)c1 (stereo not drawn)	Y
NC(=O)C(CNC(=O)Cc1ccc(F)cc1)Cc1ccc(F)cc1 (stereo not drawn)	N
c1cncc(OCc2noc3c2CN(Cc2ccoc2)CC3)c1	Y
CC(C)NC(=O)c1ccc2c(c1)nc1n2CCN(c2ccccc2)C1	N
O=C(CC1CCCC1)N1CCCC(c2n[nH]c3nccnc23)C1 (stereo not drawn)	N
COc1cccc(NC(=O)N(CCO)Cc2ccsc2)c1	N
O=C(CCc1ccccc1)C1CCCN(C(=O)c2ncc(F)cc2F)C1 (stereo not drawn)	N
CN(Cc1nc(-c2ccco2)no1)C1CCCN(c2cccnn2)C1 (stereo not drawn)	Y
CC(=O)N1CCN(Cn2nc(-c3ccc(F)cc3)oc2=O)CC1	Y
O=C(NCc1ccccn1)N(Cc1ccc(F)cc1F)C1CC1	Y
COc1ccc(C(=O)N2C[C@@H](C(=O)O)[C@H](c3ccccc3C)C2)c(O)c1	N
O=C1COC2(CCN(Cc3ccccn3)CC2)CN1CC1CC1	N
COc1ncccc1CN1CCn2c(Cn3cncn3)cnc2C1	Y

----------
- SYSTEM: Tyrosyl-tRNA synthetase, putative (Trypanosoma cruzi (strain CL Brener))
- PROCEDURE DETAILS: Trypanosoma cruzi tyrosyl tRNA synthetase (TcYRS) _High Tyrosine SOP; further: in the data most compounds retested in dose-response had high values
- Format: functional
- Parameters: scale not given: direction of the effect not stated beside the values
- PROTOCOL CONDITIONS: 30 µM
Catalogue of Percent Effect values

COMPOUND	VALUE UNIT	Percent Effect
CN(C)c1ccc(CCNC(=O)C2CCC(=O)N(C3CCCC3)C2)cc1 (stereo unspecified)	%	2.73
CN1N=C(C(=O)NCc2ccc3c(c2)CCCN3C)CCC1=O	%	6.25
CC(=O)N1CCC(Oc2ccc(C#N)cn2)CC1	%	4.3
Cc1csc(NC(=O)CN(C)CC2CCCN2c2cccnn2)n1 (stereo unspecified)	%	11.9
Cn1cc(-c2ncnc3c2CCN(C(=O)N2CCOCC2)CC3)cn1	%	1.07
Cc1ccc(C(=O)N2CCO[C@H]3[C@@H](OCc4ccccn4)CC[C@@H]32)o1	%	-1.06
CCNC(=O)c1nc2c(s1)CCCN2S(C)(=O)=O	%	-6.25
Cc1noc(C)c1-c1cccc(CC2CCN(C(=O)c3cc[nH]n3)C2)n1 (stereo unspecified)	%	4.25
O=C(CCCOc1ccc(F)cc1F)N1CCCC1Cn1cccn1 (stereo unspecified)	%	5.42
CC(=O)N(C)CC(=O)Nc1cccc(N2CCN(CC3CC3)CC2)c1	%	3.23
COc1c(C2CCCN2Cc2csc(C(C)C)n2)c(C)nn1C (stereo unspecified)	%	1.94
Cc1noc(C)c1-c1cccc(CC2CCN(C(=O)CCC(=O)O)C2)n1 (stereo unspecified)	%	1.07
COc1cc(C(=O)N(CCC#N)Cc2ccccn2)cc(OC)c1C	%	-0.546
CCc1ccc(CNC(=O)N2CCN(Cc3cc(C)no3)CC2)s1	%	2.46
Cc1ccc(-n2nnc(CC(=O)N3CCOCC3)c2C)cc1	%	6.45
O=C1CC2(CCN(CCO)CC2)CN1Cc1cc(F)cc(F)c1	%	2.1
Cc1nc(N2CCN(C(=O)c3ccccc3)CC2)c2c(n1)c(C)nn2C	%	6.35
Cc1nc(CN2CCC3(CCCN(Cc4cnn(C)c4)C3)C2=O)cs1 (stereo unspecified)	%	3.12
O=C(NC1CCCC1)NC1CCC(C(=O)N2CCSCC2)CC1 (stereo unspecified)	%	2.15
c1cnc(N2CCC3(CCN(Cc4ccncc4)CC3)CC2)nc1	%	1.08
Cc1ccccc1CN1CCC(NCC2CNc3ccnn3C2)CC1 (stereo unspecified)	%	6.45
Cc1ccc(-c2cc(N)c(=O)n(CC(=O)NCC3CC3)n2)s1	%	1.07
Clc1ccc(CN2CCCC(Cn3cncn3)C2)c2ncccc12 (stereo unspecified)	%	4.3
O=C(c1ccsc1)N1CCc2c(CNc3ncccn3)n[nH]c2C1	%	-1.04
CCOC(CC)C(=O)NCCC(=O)N1CCN(c2ncccn2)CC1 (stereo unspecified)	%	3.19
c1ccc(-c2nc(CN3CCCC(Cn4cncn4)C3)no2)cc1 (stereo unspecified)	%	2.08
Cn1c(C2CC2)nc2c1CCN(CCOc1ccc(C#N)cc1)C2	%	6.8
Cc1csc(C2CCCN(C(=O)c3cc(Cl)c[nH]3)C2)n1 (stereo unspecified)	%	14.3
O=C(c1ccsc1)N1CCCC(c2cc(C(F)(F)F)[nH]n2)C1 (stereo unspecified)	%	0.493
CCN1CCn2c(C)cnc2C12CCN(C(=O)CC(C)C)CC2	%	0
O=C(NC1CCC1)[C@@H]1CCO[C@@H]2CCN(CCc3ccccc3)C[C@H]21	%	8.91
